Listed here: items and their measured inhibition at 1 µM.
targetOrTestSystem: human norepinephrine transporter (Homo sapiens)
Construct: expressed in transfected cells
Sequence (P23975 whole entry): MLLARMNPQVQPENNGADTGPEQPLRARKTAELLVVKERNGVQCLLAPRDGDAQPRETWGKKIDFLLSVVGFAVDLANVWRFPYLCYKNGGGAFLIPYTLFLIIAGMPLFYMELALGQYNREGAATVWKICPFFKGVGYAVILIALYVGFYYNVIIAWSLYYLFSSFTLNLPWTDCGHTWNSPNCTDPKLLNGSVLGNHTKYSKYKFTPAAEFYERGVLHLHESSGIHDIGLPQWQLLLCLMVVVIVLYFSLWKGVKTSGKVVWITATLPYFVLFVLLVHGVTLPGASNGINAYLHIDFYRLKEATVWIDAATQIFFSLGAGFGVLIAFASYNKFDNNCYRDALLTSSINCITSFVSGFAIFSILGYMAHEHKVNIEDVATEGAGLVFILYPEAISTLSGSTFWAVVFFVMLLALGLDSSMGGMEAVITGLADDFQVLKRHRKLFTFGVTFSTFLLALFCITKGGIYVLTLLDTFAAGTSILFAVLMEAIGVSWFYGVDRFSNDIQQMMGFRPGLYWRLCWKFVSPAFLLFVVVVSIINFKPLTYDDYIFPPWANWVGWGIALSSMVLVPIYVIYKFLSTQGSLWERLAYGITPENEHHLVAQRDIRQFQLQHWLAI
experimentalDetails: Inhibitory action on human norepinephrine transporter ([3H]-norepinephrine uptake in CHO cells)
Assay type: cell-based
settings: CHO, compound 1 μM; relative to inhibitory activity of 10 μM DMI as 100%; read-out: inhibitory rate (%)
Counter-ions that a name gives are not always drawn.
metricName: inhibition at 1 µM (%)

NS(=O)(=O)NC[C@@H]1CNCCO[C@H]1c1ccc(Cl)c(Cl)c1 [Example 35, monohydrochloride]    99
COCC(=O)NC[C@@H]1CNCCO[C@H]1c1ccc(Cl)c(F)c1 [Example 38, monohydrochloride]    102
CC(=O)NC[C@H]1OCCNC[C@H]1c1ccc(Cl)c(Cl)c1 [Example 453, monohydrochloride]    104
NS(=O)(=O)NCC1(c2ccc(Cl)c(Cl)c2)CCNCCO1 (racemic) [Example 22, monohydrochloride]    97
OCCOC[C@@H]1OCCNC[C@H]1c1ccc(Cl)c(Cl)c1 [Example 496, monohydrochloride]    105
NS(=O)(=O)N[C@@H]1CNCCO[C@H]1c1ccc(Cl)c(Cl)c1 [Example 37, monohydrochloride]    102
OC[C@H](O)[C@@H]1OCCNC[C@H]1c1ccc(Cl)c(Cl)c1 [Example 45, monohydrochloride]    105

Where do the numbers come from? From patent US20130267494A1.
